Each entry below carries its reported IC50.
# Test system: SMMC7721 hepatoma cells
# test: Anti-tumor activity in vitro, MTT method, SMMC7721
# Assay type: cell-based, human
# conditionDescription: Homo sapiens, SMMC-7721; SMMC7721, 72 h, MTT; read-out: IC50 SMMC7721 72 h

[
  {
    "moleculeSmiles": "COc1ccc(-c2oc3c(CC=C(C)C)c(O)cc(O)c3c(=O)c2OC(=O)CCC(=O)OCCCOCc2cn(CCO[C@H]3O[C@@H](CO)[C@H](O)[C@@H](O)[C@@H]3O)nn2)cc1",
    "u": "µM",
    "inequalitySign": "=",
    "IC50": 6.65
  },
  {
    "moleculeSmiles": "COc1ccc(-c2oc3c(CC=C(C)C)c(O)cc(O)c3c(=O)c2OC(=O)CCC(=O)OCCOCCOCCOCc2cn(CCO[C@H]3O[C@@H](CO)[C@H](O)[C@@H](O)[C@@H]3O)nn2)cc1",
    "u": "µM",
    "inequalitySign": "=",
    "IC50": 2.51
  },
  {
    "moleculeSmiles": "COc1ccc(-c2oc3c(CC=C(C)C)c(O)cc(O)c3c(=O)c2OC(=O)CCC(=O)OCCN(CCOCc2cn(CCOCCO[C@H]3O[C@@H](CO)[C@H](O)[C@@H](O)[C@@H]3O)nn2)c2ccccc2)cc1",
    "u": "µM",
    "inequalitySign": "=",
    "IC50": 9.57
  },
  {
    "moleculeSmiles": "COc1ccc(-c2oc3c(CC=C(C)C)c(O)cc(O)c3c(=O)c2OC(=O)CCC(=O)OCCOCCOCc2cn(CCO[C@@H]3O[C@H](CO)[C@@H](O)[C@H](O)[C@H]3O)nn2)cc1",
    "u": "µM",
    "inequalitySign": ">",
    "IC50": 100
  },
  {
    "moleculeSmiles": "COc1ccc(-c2oc3c(CC=C(C)C)c(O)cc(O)c3c(=O)c2OC(=O)CCC(=O)OCCN(CCOCc2cn(CCO[C@@H]3O[C@H](CO)[C@@H](O)[C@H](O)[C@H]3O)nn2)c2ccccc2)cc1",
    "u": "µM",
    "inequalitySign": "=",
    "IC50": 12.9
  },
  {
    "moleculeSmiles": "COc1ccc(-c2oc3c(CC=C(C)C)c(O)cc(O)c3c(=O)c2OC(=O)CCC(=O)OCCOCCOCCOCCOCc2cn(CCO[C@H]3O[C@@H](CO)[C@H](O)[C@@H](O)[C@@H]3O)nn2)cc1",
    "u": "µM",
    "inequalitySign": "=",
    "IC50": 5.99
  },
  {
    "moleculeSmiles": "COc1ccc(-c2oc3c(CC=C(C)C)c(O)cc(O)c3c(=O)c2OC(=O)CCC(=O)OCc2cn(CCOCCO[C@H]3O[C@@H](CO)[C@H](O)[C@@H](O)[C@@H]3O)nn2)cc1",
    "u": "µM",
    "inequalitySign": ">",
    "IC50": 100
  }
]
